Tested on: ICR mice
Assay method text: Acute toxicity test, single oral administration to ICR mice (MTD)
Type: in vivo
Measurement kind: MTD (maximum tolerated dose) (mg/kg)
Numbers only; they are read as mg/kg.

Use the examples below as a reference point.
Field MTD (maximum tolerated dose) (entry CC(C)(C)NS(=O)(=O)c1cccc(N2CCc3cnc(Nc4ccc(OC5CCNCC5)cc4)nc32)c1 [Compound I-19] ) reads 1500

// CN1CCN(CCOc2ccc(Nc3ncc4c(n3)N(c3cccc(S(=O)(=O)NC(C)(C)C)c3)CC4)cc2)CC1 [Compound I-4] : MTD (maximum tolerated dose) value = 1000

Please find the next compound below.
The compound identified as CC(C)(C)NS(=O)(=O)c1cccc(N2CCc3cnc(Nc4ccc(OCCN5CCNCC5)cc4)nc32)c1 [Compound I-2] registered its MTD (maximum tolerated dose) at 1500

###

Assay method text: Acute toxicity test, single oral administration to ICR mice (MTD)
Assay type: in vivo
Test parameters: ICR, mouse, in vivo, po, read-out: MTD (maximum tolerated dose)
Quick list: MTD at 6 days per entry.

Check out these entries, answers already filled in.
Noted for "CC(C)(C)NS(=O)(=O)c1cccc(N2CCc3cnc(Nc4ccc(OC5CCNCC5)cc4)nc32)c1" : its MTD at 6 days reads ≥ 1000 mg/kg

Lab note: "CN1CCN(CCOc2ccc(Nc3ncc4c(n3)N(c3cccc(S(=O)(=O)NC(C)(C)C)c3)CC4)cc2)CC1" gave MTD at 6 days of ≥ 1000 mg/kg

Measured MTD at 6 days of Cc1cnc(Nc2ccc(OCCN3CCCC3)cc2)nc1Nc1cccc(S(=O)(=O)NC(C)(C)C)c1 [Fedratinib, reference compound] : 250 mg/kg

// recorded MTD at 6 days for "CC(C)(C)NS(=O)(=O)c1cccc(N2CCc3cnc(Nc4ccc(OCCN5CCCC5)cc4)nc32)c1" : > 2000 mg/kg

MTD at 6 days recorded for this molecule, "CN1CCN(c2ccc(Nc3ncc4c(n3)N(c3cccc(S(=O)(=O)NC(C)(C)C)c3)CC4)cc2)CC1" , is > 2000 mg/kg

New cases:
So, "CC(C)(C)NS(=O)(=O)c1cccc(N2CCc3cnc(Nc4ccc(CN5CCSCC5)cc4)nc32)c1" ? Its MTD at 6 days was ≥ 1000 mg/kg

// sample "CC(C)(C)NS(=O)(=O)c1cccc(N2CCc3cnc(Nc4ccc(C5CCNCC5)cc4)nc32)c1" , its MTD at 6 days was > 2000 mg/kg

MTD at 6 days recorded for this molecule, "CC(C)(C)NS(=O)(=O)c1cccc(N2CCc3cnc(Nc4ccc(OCCN5CCNCC5)cc4)nc32)c1" , is ≥ 1000 mg/kg

###

Assay method text: Pharmacokinetic test in SD rats, intragastric administration
Format: in vivo
Test parameters: rat, po, single intragastric administration, 25 mg/kg, plasma, read-out: Blood concentration Cmax
Measurement kind: Cmax (ng/mL)
Answer in ng/mL, number only, no unit symbol.

The examples below pair each entry with its known result.
The measured Cmax associated with "CC(C)(C)NS(=O)(=O)c1cccc(N2CCc3cnc(Nc4ccc(OCCN5CCOCC5)cc4)nc32)c1" reads 1230

Reported Cmax ( "CC(C)(C)NS(=O)(=O)c1cccc(N2CCc3cnc(Nc4ccc(CN5CCSCC5)cc4)nc32)c1" ) = 979

GET /value?item= "CC(C)(C)NS(=O)(=O)c1cccc(N2CCc3cnc(Nc4ccc(OCCN5CCCCC5)cc4)nc32)c1" &field=Cmax returns 1120

Next:
Cmax measured on "CN1CCN(CCOc2ccc(Nc3ncc4c(n3)N(c3cccc(S(=O)(=O)NC(C)(C)C)c3)CC4)cc2)CC1" = 1100

// sample Cc1cnc(Nc2ccc(OCCN3CCCC3)cc2)nc1Nc1cccc(S(=O)(=O)NC(C)(C)C)c1 [Fedratinib, reference compound] , its Cmax was 579

Just so you know, measured Cmax for "CC(C)(C)NS(=O)(=O)c1cccc(N2CCc3cnc(Nc4ccc(C5CCNCC5)cc4)nc32)c1" came out at 1030

Lookup result for "CC(C)(C)NS(=O)(=O)c1cccc(N2CCc3cnc(Nc4ccc(OCCN5CCCC5)cc4)nc32)c1" ; measured Cmax: 998

###

Test system: TF-1
Assay method text: TF-1 cell proliferation experiment (CellTiter Glo)
Type: cell-based
Test parameters: Homo sapiens; TF-1 cells, 72 hours; read-out: TF-1 (μM), proliferation inhibition
Measurement kind: IC50

GET /value?item= "CC(C)(C)NS(=O)(=O)c1cccc(N2CCc3cnc(Nc4ccc(CN5CCOCC5)cc4)nc32)c1" &field=IC50 returns 0.17 µM

Note to self: IC50 recorded for "CC(C)(C)NS(=O)(=O)c1cccc(N2CCc3cnc(Nc4ccc(OCCN5CCNCC5)cc4)nc32)c1" was 0.21 µM

Please fill in: IC50 reported for "CC(C)(C)NS(=O)(=O)c1cccc(N2CCc3cnc(Nc4ccc(N5CCCCC5)cc4)nc32)c1" = 0.15 µM

Entry "CC(C)(C)NS(=O)(=O)c1cccc(N2CCc3cnc(Nc4ccc(OCCN5CCCCC5)cc4)nc32)c1" — recorded IC50 = 0.22 µM

Reported IC50 ( "CC(C)(C)NS(=O)(=O)c1cccc(N2CCc3cnc(Nc4ccc(C5CCNCC5)cc4)nc32)c1" ) = 0.19 µM

---
Note to self: IC50 recorded for "CN1CCC(c2ccc(Nc3ncc4c(n3)N(c3cccc(S(=O)(=O)NC(C)(C)C)c3)CC4)cc2)CC1" was 0.15 µM

For "CC(C)(C)NS(=O)(=O)c1cccc(N2CCc3cnc(Nc4ccc(CN5CCS(=O)(=O)CC5)cc4)nc32)c1" the compound record lists IC50 as 0.21 µM

# IC50 (compound: "CC(C)(C)NS(=O)(=O)c1cccc(N2CCc3cnc(Nc4ccc(CN5CCCC5)cc4)nc32)c1" ) is 0.22 µM

Reported IC50 for "CC(C)(C)NS(=O)(=O)c1cccc(N2CCc3cnc(Nc4ccc(OCCN5CCOCC5)cc4)nc32)c1" was 0.18 µM

IC50 recorded for this compound, "CC(C)(C)NS(=O)(=O)c1cccc(N2CCc3cnc(Nc4ccc(OCCN5CCS(=O)(=O)CC5)cc4)nc32)c1" , is 0.15 µM

// Cc1cnc(Nc2ccc(OCCN3CCCC3)cc2)nc1Nc1cccc(S(=O)(=O)NC(C)(C)C)c1 [Fedratinib, reference compound] : IC50 value = 1.57 µM

###

Target of assay: JAK2 (Homo sapiens, UniProt O60674)
Sequence (O60674 whole entry): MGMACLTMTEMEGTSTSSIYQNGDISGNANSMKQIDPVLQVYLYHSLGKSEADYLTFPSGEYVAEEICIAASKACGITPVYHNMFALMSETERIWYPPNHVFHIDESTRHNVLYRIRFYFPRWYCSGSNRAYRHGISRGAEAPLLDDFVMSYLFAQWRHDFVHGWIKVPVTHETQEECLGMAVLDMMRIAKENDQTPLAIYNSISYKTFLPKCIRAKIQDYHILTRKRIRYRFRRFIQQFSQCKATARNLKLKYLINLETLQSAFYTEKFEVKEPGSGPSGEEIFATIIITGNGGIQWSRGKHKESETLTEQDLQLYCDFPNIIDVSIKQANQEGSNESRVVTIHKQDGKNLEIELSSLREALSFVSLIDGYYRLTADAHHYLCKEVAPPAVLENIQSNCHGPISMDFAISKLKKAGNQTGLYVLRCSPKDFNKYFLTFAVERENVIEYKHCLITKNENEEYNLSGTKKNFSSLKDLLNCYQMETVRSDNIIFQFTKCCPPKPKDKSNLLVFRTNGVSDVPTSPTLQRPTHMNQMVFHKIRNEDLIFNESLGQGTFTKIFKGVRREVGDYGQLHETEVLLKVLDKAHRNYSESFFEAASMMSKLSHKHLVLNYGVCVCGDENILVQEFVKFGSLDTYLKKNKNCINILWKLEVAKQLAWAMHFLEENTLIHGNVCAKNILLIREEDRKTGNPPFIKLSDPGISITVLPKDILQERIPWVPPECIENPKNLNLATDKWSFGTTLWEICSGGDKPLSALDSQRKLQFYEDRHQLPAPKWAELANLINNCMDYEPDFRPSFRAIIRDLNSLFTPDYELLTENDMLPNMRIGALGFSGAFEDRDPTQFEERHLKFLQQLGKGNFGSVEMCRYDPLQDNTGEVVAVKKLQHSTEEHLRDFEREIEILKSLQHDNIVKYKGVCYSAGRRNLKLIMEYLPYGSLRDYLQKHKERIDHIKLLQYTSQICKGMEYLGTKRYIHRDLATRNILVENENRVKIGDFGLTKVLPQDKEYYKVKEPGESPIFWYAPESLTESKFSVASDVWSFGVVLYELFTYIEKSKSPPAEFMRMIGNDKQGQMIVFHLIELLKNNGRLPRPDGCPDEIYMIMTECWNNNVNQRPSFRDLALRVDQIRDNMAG
Measured IC50, listed per entry for reference.
Enter your answer as a number in nM; do not include the unit.

Examples from the recorded data:
Entry "CC(C)(C)NS(=O)(=O)c1cccc(N2CCc3cnc(Nc4ccc(CN5CCSCC5)cc4)nc32)c1" , JAK2 (Homo sapiens, UniProt O60674) data, IC50 value: 1

Per the reported JAK2 (Homo sapiens, UniProt O60674) data, "CN1CCC(c2ccc(Nc3ncc4c(n3)N(c3cccc(S(=O)(=O)NC(C)(C)C)c3)CC4)cc2)CC1" has IC50 of 0.8

Query "CC(C)(C)NS(=O)(=O)c1cccc(N2CCc3cnc(Nc4ccc(OCCN5CCSCC5)cc4)nc32)c1" on JAK2 (Homo sapiens, UniProt O60674); IC50 returned: 1.1

The reported IC50 value, JAK2 (Homo sapiens, UniProt O60674), for "CN1CCN(CCOc2ccc(Nc3ncc4c(n3)N(c3cccc(S(=O)(=O)NC(C)(C)C)c3)CC4)cc2)CC1" reads 1.2

GET /values?item= "CC(C)(C)NS(=O)(=O)c1cccc(N2CCc3cnc(Nc4ccc(OC5CCNCC5)cc4)nc32)c1" &system= JAK2 (Homo sapiens, UniProt O60674) returns IC50: 0.9

Further cases:
Test item "CN1CCN(Cc2ccc(Nc3ncc4c(n3)N(c3cccc(S(=O)(=O)NC(C)(C)C)c3)CC4)cc2)CC1" ; JAK2 (Homo sapiens, UniProt O60674); reported IC50 was 0.7

# value of IC50, JAK2 (Homo sapiens, UniProt O60674), item "CC(C)(C)NS(=O)(=O)c1cccc(N2CCc3cnc(Nc4ccc(CN5CCS(=O)(=O)CC5)cc4)nc32)c1" = 1.7

###

Test system: TF-1
Assay method text: TF-1 cell proliferation experiment (CellTiter Glo)
Type: cell-based
Test parameters: Homo sapiens; TF-1 cells, 72 hours; read-out: TF-1 (μM), proliferation inhibition
Measurement kind: IC50 (µM)
Field: numeric (µM). Do not append units.

// sample "CC(C)(C)NS(=O)(=O)c1cccc(N2CCc3cnc(Nc4ccc(N5CCNCC5)cc4)nc32)c1" , its IC50 was 0.15

So for "CC(C)(C)NS(=O)(=O)c1cccc(N2CCc3cnc(Nc4ccc(OCCN5CCSCC5)cc4)nc32)c1" , the logged IC50 turned out to be 0.28

"CCN1CCN(Cc2ccc(Nc3ncc4c(n3)N(c3cccc(S(=O)(=O)NC(C)(C)C)c3)CC4)cc2)CC1" yielded IC50 of 0.23

Value of IC50 reported for the compound "CC(C)(C)NS(=O)(=O)c1cccc(N2CCc3cnc(Nc4ccc(N5CCOCC5)cc4)nc32)c1" is 0.14

meta.source: patent US12421238B2
